Assay: M. tuberculosis growth inhibition, HTS (AID 449762);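 further: bacterial growth assessed after seven days of incubation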
Conditions: M. tuberculosis H37Rv growth inhibition, 7H9 media; at 25 µM; stronger effect = higher value
Out of some 330,000 compounds screened, about 1,900 (0.58%) were called active. Roughly 4% stayed inconclusive and do not appear here. The list is a sample of the results. Results with a measured potency or affinity are listed apart.
The reader will find reported inhibition values listed item by item below.
Record the value in %, omitting the unit from your answer.

// below: answered molecules
Cc1ccccc1COc1ccc(-c2nnn(CC(=O)O)n2)cc1    0.49
O=C1CN(C(=O)CSc2ccc(-c3ccc(F)cc3)nn2)c2ccccc2N1    -6.46
Fc1ccc2[nH]c3c(NCCN4CCOCC4)ncnc3c2c1    1.25
CCOC(=O)c1cccc(NC(=O)C2CCN(S(=O)(=O)c3cccs3)CC2)c1    -3.98
Cc1ccc2[nH]c3c(NCc4ccccc4)ncnc3c2c1    67.8

Moving on to the next molecule.
// query Entry NC(=S)N=Nc1c(O)[nH]c2ccccc12 has what inhibition?
// result -9.66

Source of measurements: PubChem BioAssay AID449762
